Attribution: patent US20220073536A1

Property: pIC50; scope: individual compounds
Tested on: cultured human mast cells (CHMC)
Assay: CHMC low cell density ionomycin activation: tryptase assay
Format: cell-based
Details: Homo sapiens, Mast cell, low cell density CHMC, tryptase readout, 3 pt, read-out: LD Tryptase, CHMC, Iono, 3 pt
pIC50: −log10 of the molar value.

Examples with their reported pIC50 follow.
{"compound": "COc1cc(Nc2ncc(F)c(NC3CCC3)n2)cc(OC)c1 [Compound 1088]", "studyTarget": "cultured human mast cells (CHMC)", "pIC50": "< 5.00"}
{"compound": "CC(=O)N1CCN(c2cccc(Nc3ncc(F)c(Nc4cc(C(C)(C)C)[nH]n4)n3)c2)CC1 [Compound 1091]", "studyTarget": "cultured human mast cells (CHMC)", "pIC50": "< 5.00"}
{"compound": "COc1c(C)cc(Nc2ncc(F)c(Nc3cccc(NC4=NCCN4)c3)n2)cc1C [Compound 1093]", "studyTarget": "cultured human mast cells (CHMC)", "pIC50": "< 5.00"}
{"compound": "COC(=O)N1CCN(c2ccc(Nc3ncc(F)c(Nc4cc(C(C)(C)C)[nH]n4)n3)cc2)CC1 [Compound 1103]", "studyTarget": "cultured human mast cells (CHMC)", "pIC50": "< 5.00"}

Bench note: what pIC50 did CC1(C)Oc2ccc(Nc3nc(Nc4cccc(-c5cocn5)c4)ncc3F)cc2NC1=O [Compound 1036] show?
> 5.00

Bench note: what pIC50 did COc1cc(Nc2ncc(F)c(NC3CCC3)n2)cc(C(F)(F)F)c1 [Compound 1089] show?
< 5.00

Bench note: what pIC50 did Cc1cc(Nc2ncc(F)c(Nc3ccc4c(c3)N(C)C(=O)C(C)(C)O4)n2)cc(Cl)c1OC1CCCC1 [Compound 1034] show?
< 5.00

Bench note: what pIC50 did CC(=O)N1CCN(c2cccc(Nc3ncc(F)c(Nc4cccc(NC5=NCCN5)c4)n3)c2)CC1 [Compound 1106] show?
< 5.00

Bench note: what pIC50 did COc1cc(Nc2ncc(F)c(Nc3cccc(NC4=NCCN4)c3)n2)cc(OC)c1 [Compound 1096] show?
< 5.00

====

Property: IC50; scope: individual compounds
System: cultured human mast cells (CHMC)
Test: CHMC low cell density IgE activation: tryptase assay
Format: cell-based
Settings: Homo sapiens, Mast cell, low cell density, IgE activation, 3 pt; read-out: LD Tryptase, CHMC, IgE, 3 pt

{"querySmiles": "COc1ccc(Nc2nc(Nc3ccc4c(cnn4CCCNC(C)=O)c3)ncc2F)nc1Cl", "result": "< 10 µM"}
{"querySmiles": "CCN(CC)Cc1nc2cc(Nc3ncc(F)c(Nc4ccc5c(c4)NC(=O)C(C)(C)O5)n3)ccc2n1C", "result": "< 10 µM"}
{"querySmiles": "CN(c1ccc2c(c1)OCCO2)c1nc(N)ncc1F", "result": "> 10 µM"}

Could you now consider this next compound?
Bench note: what IC50 did Cc1cc(Nc2ncc(F)c(Nc3ccc4c(c3)OCCO4)n2)cc(Cl)c1O show?
< 10 µM

====

Tested on: cultured human mast cells (CHMC)
Experiment: CHMC low cell density IgE activation: tryptase assay
Assay type: cell-based
Settings: Homo sapiens, Mast cell, low cell density, IgE activation, 3 pt; read-out: LD Tryptase, CHMC, IgE, 3 pt
Property: IC50; scope: individual compounds

Examples with their reported IC50 follow.
{"querySmiles": "COc1ccc(Nc2ncc(F)c(Nc3ccc(OC)c(Cl)n3)n2)cc1Cl", "IC50": "> 10 µM"}
{"querySmiles": "Fc1cnc(Nc2cc(-c3ncco3)cc(C(F)(F)F)c2)nc1Nc1cc(-c2ncco2)cc(C(F)(F)F)c1", "IC50": "< 10 µM"}
{"querySmiles": "CNC(=O)c1ccc(Nc2nc(Nc3ccc(Cl)c(C(=O)NC)c3)ncc2F)cc1Cl", "IC50": "> 10 µM"}

Could you now consider this next compound?
Bench note: what IC50 did CN(c1ccc2c(c1)OCCO2)c1nc(NCCO)ncc1F show?
> 10 µM

====

Tested on: cultured human mast cells (CHMC)
Experiment: CHMC low cell density IgE activation: tryptase assay
Type: cell-based
Details: Homo sapiens, Mast cell, low cell density, IgE activation, 3 pt; read-out: LD Tryptase, CHMC, IgE, 3 pt
Property: IC50; scope: individual compounds

{"querySmiles": "CNC(=O)c1cc(Nc2ccnc(Nc3ccc4cc[nH]c4c3)n2)ccc1Cl", "IC50": "< 10 µM"}
{"querySmiles": "COc1ccc(Nc2ncc(F)c(N(C)c3ccc4c(c3)OCCO4)n2)c(OC)n1", "IC50": "> 10 µM"}
{"querySmiles": "COC(=O)c1cc(Nc2ncc(F)c(Nc3ccc4c(c3)OCCO4)n2)cc(-c2ncco2)c1", "IC50": "> 10 µM"}

Notebook entry, cultured human mast cells (CHMC) assay: IC50 of CCN(CC)Cc1nc2cc(Nc3ncc(F)c(Nc4ccc5c(c4)NC(=O)[C@H](C)O5)n3)ccc2n1C = ?
< 10 µM

Notebook entry, cultured human mast cells (CHMC) assay: IC50 of COc1ccc(Nc2nc(Nc3ccc4c(cnn4C)c3)ncc2F)nc1Cl = ?
> 10 µM

Notebook entry, cultured human mast cells (CHMC) assay: IC50 of COc1c(C)cc(Nc2ncc(F)c(Nc3ccc4c(c3)OCCO4)n2)cc1C = ?
< 10 µM

Notebook entry, cultured human mast cells (CHMC) assay: IC50 of COc1cc(Nc2ncc(F)c(Nc3ccc(Cl)cn3)n2)cc(OC)c1 = ?
< 10 µM

Notebook entry, cultured human mast cells (CHMC) assay: IC50 of CCOc1c(C)cc(Nc2ncc(F)c(Nc3ccc4c(c3)NC(=O)C(C)(C)O4)n2)cc1Cl = ?
< 10 µM

====

Property: pIC50; scope: individual compounds
Tested on: cultured human mast cells (CHMC)
Experiment: CHMC low cell density IgE activation: tryptase assay
Format: cell-based
Conditions: Homo sapiens, Mast cell, low cell density CHMC, IgE activation, tryptase release, 3 point; read-out: LD Tryptase, CHMC, IgE, 3 pt
pIC50: −log10 of the molar value.

{"querySmiles": "CNC(=O)c1cc(Nc2ncc(F)c(Nc3ccc(Cl)c(C(F)(F)F)c3)n2)ccc1Cl", "result": "> 5.00"}
{"querySmiles": "Cc1cc(C)cc(Nc2ncc(F)c(N(C)c3cc(C)c(Cl)c(C)c3)n2)c1", "result": "< 5.00"}
{"querySmiles": "Cc1cc(N(C)c2nc(Nc3ccc(-c4cocn4)cc3)ncc2F)cc(C)c1Cl", "result": "> 5.00"}

Bench note: what pIC50 did COc1ccc(N(C)c2nc(Nc3cc(C)cc(C)c3)ncc2F)cc1Cl show?
> 5.00

Bench note: what pIC50 did Cc1cc(N(C)c2nc(Nc3ccc(-c4ncco4)cc3)ncc2F)cc(C)c1Cl show?
< 5.00

Bench note: what pIC50 did COc1cc(N(C)c2nc(Cl)ncc2F)ccc1Cl show?
< 5.00

Bench note: what pIC50 did Fc1cnc(Nc2ccc3cc[nH]c3c2)nc1Nc1ccc(Cl)c(C(F)(F)F)c1 show?
> 5.00

Bench note: what pIC50 did CNC(=O)c1ccc(Nc2ncc(F)c(Nc3ccc(Cl)c(OC)c3)n2)cc1Cl show?
> 5.00

Bench note: what pIC50 did Cc1cc(C)cc(Nc2ncc(F)c(N(C)c3ccc(OC(C)C)nc3)n2)c1 show?
> 5.00

Bench note: what pIC50 did COc1ccc(N(C)c2nc(Nc3cc(C)c(OC)c(Cl)c3)ncc2F)cc1Cl show?
> 5.00

Bench note: what pIC50 did CNC(=O)COc1ccc(Nc2nc(Nc3ccc4ccn(CC(=O)NC)c4c3)ncc2F)cc1Cl show?
> 5.00

====

Property: IC50; scope: individual molecules
Test system: cultured human mast cells (CHMC)
Assay: CHMC low cell density IgE activation: tryptase assay
Type: cell-based
Settings: Homo sapiens, Mast cell, low cell density, IgE activation, 3 pt; read-out: LD Tryptase, CHMC, IgE, 3 pt

Examples with their reported IC50 follow.
{"querySmiles": "CNC(=O)c1ccc(Nc2ncc(F)c(Nc3cc(OC)cc(OC)c3)n2)cc1Cl", "studyTarget": "cultured human mast cells (CHMC)", "IC50": "< 10 µM"}
{"querySmiles": "CNC(=O)c1cc(Nc2ncc(F)c(Nc3ccc4c(c3)NC(=O)C(C)(C)O4)n2)ccc1Cl", "studyTarget": "cultured human mast cells (CHMC)", "IC50": "< 10 µM"}
{"querySmiles": "CC(C)Nc1ncc(F)c(N(C)c2ccc3c(c2)OCCO3)n1", "studyTarget": "cultured human mast cells (CHMC)", "IC50": "> 10 µM"}
{"querySmiles": "Nc1cccc(Nc2nc(Cl)ncc2F)n1", "studyTarget": "cultured human mast cells (CHMC)", "IC50": "> 10 µM"}
{"querySmiles": "COc1ccc(Nc2nc(Nc3ccc4c(c3)nc(C)n4C)ncc2F)cc1Cl", "studyTarget": "cultured human mast cells (CHMC)", "IC50": "< 10 µM"}

Bench note: what IC50 did COc1ncc(F)c(N(C)c2ccc3c(c2)OCCO3)n1 show?
> 10 µM

Bench note: what IC50 did CCn1c(C)nc2cc(Nc3ncc(F)c(Nc4ccc5c(c4)NC(=O)[C@H](C)O5)n3)ccc21 show?
< 10 µM

Bench note: what IC50 did CNC(=O)c1ccc(Nc2ncc(F)c(Nc3ccc(OC)c(Cl)c3)n2)cc1Cl show?
< 10 µM

Bench note: what IC50 did COC(=O)c1cc(Nc2ncc(F)c(Nc3c(C)noc3C)n2)cc(-c2ncco2)c1 show?
< 10 µM

Bench note: what IC50 did CNC(=O)c1cc(Nc2nc(Nc3cc(C)cc(C)c3)ncc2F)ccc1Cl show?
< 10 µM

Bench note: what IC50 did COc1c(C)cc(Nc2ncc(F)c(Nc3ccc4c(n3)NC(=O)C(C)(C)O4)n2)cc1C show?
< 10 µM
